target: UniProt P49840; assay: concentration-response blocking of human GSK3A – biochemical, luminescence, cell-free homogeneous, retest, dose response (AID 463203); conditions: GSK-3 alpha enzyme, ADP-Glo luminescence, 60 min
Sequence (P49840 whole entry, looked up): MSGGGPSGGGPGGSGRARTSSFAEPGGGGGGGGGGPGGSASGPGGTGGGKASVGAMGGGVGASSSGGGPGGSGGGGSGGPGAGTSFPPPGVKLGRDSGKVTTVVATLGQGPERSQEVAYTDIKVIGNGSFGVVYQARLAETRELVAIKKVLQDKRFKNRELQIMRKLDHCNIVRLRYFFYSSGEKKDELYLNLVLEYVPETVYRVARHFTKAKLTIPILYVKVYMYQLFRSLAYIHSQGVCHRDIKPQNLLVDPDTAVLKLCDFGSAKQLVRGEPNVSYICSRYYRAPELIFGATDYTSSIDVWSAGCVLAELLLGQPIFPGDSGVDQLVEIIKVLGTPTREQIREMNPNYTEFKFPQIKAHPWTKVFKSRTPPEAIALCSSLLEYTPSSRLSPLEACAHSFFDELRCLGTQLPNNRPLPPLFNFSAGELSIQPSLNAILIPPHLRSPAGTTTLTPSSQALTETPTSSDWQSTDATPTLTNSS
Activity calls are given as the source filed them.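 How the source made its calls: active means more than half of replicate measurements showing over 20% loss of kinase signal relative to plate controls; inconclusive means some but at most half of replicates over 20% loss; inactive means no replicate over 20% signal loss.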
Classes used: active, inactive

> print(dat)
                                    compound  label.class
 1  CCN(C(=O)C1CCCN1S(=O)(=O)c1cccc2nsnc12)c1ccccc1 (stereo not drawn)       active
 2  CCN(CC)Cc1c(C(=O)N/N=C(\C)c2ccncc2)nnn1-c1nonc1N       active
 3  Nc1nc2n(n1)C(c1ccc(F)cc1)CC(c1ccc(F)cc1)N2 (stereo not drawn)     inactive
 4     CCN1C(=O)/C(=C\c2cccs2)C(C(=O)OC)=C1C     inactive
 5  COc1ccc2ccccc2c1C1CC(=O)N2CN(Cc3ccco3)CSC2=C1C#N (stereo not drawn)     inactive
 6            CCOC(=O)c1cccnc1NC(=O)c1ccncc1     inactive
 7              COC(=O)c1sccc1NC(=O)c1ccccc1     inactive
 8      CC1(C)Cc2nc3oc4c(=S)nc[nH]c4c3cc2CO1       active
 9  O=C(COC(=O)CCc1ccc(S(=O)(=O)N2CCOCC2)cc1)Nc1ccc(Cl)cn1       active
10      Cc1csc(NC(=O)/C=C/c2ccc3c(c2)OCO3)n1     inactive
11  C[C@H](NC(=O)c1nc[nH]c1C(=O)NC1CCN(C(=O)OC(C)(C)C)CC1)C(=O)OC(C)(C)C       active
12  COc1ccc(C2NC(=O)NC(C)=C2C(=O)OCc2ccc3c(c2)OCO3)cc1OC (stereo not drawn)       active
13  CCOC(=O)/C(C#N)=C/c1cn(CCC(=O)O)nc1-c1cccc(Br)c1     inactive
14  CC(C)CSc1ncnc2c1oc1nc3c(cc12)COC(C)(C)C3     inactive
15  Oc1ccc(/C=N/NP(=S)(c2ccccc2)c2ccccc2)cc1O     inactive
16   Cc1nnc(N/N=C/c2ccc(-c3ccc(Br)cc3)o2)n1N       active
17   COc1ccc(NC(=O)/C(C#N)=C\C=C\c2ccco2)cc1     inactive
18    Cc1ccc(S(=O)(=O)Nc2ccc(O)c3ncccc23)cc1     inactive
19   CCCCCCN=C(CC)c1c(O)n(CCCC)c(=O)[nH]c1=O     inactive
20  CC1=C(C(=O)Nc2cccc(F)c2)C(c2ccsc2)C2=C(CC(C)(C)CC2=O)N1 (stereo not drawn)     inactive
21  Cc1nc(SCC(=O)NCC2CCCO2)c2c3c(sc2n1)CCCC3 (stereo not drawn)     inactive
22                         Nc1cccc(C(=O)O)c1     inactive
23            O=C(CSc1ccccc1)Nc1nnc(C2CC2)s1     inactive

* * *

molecular target: Glycogen synthase kinase-3 alpha (Homo sapiens); experiment: concentration-response blocking of human GSK3A – biochemical, luminescence, cell-free homogeneous, retest, dose response (AID 463203); conditions: GSK-3 alpha enzyme, ADP-Glo luminescence, 60 min
Active and inactive are the calls of the source.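 Rule for the calls: active = more than half of replicate measurements showing over 20% loss of kinase signal relative to plate controls; inconclusive = some but at most half of replicates over 20% loss; inactive = no replicate over 20% signal loss.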
Outcome codes: t (active), f (inactive)

> print(dat)
                                    compound                         system.under.test  label.class
 1         COc1ccccc1C(=O)NNC(=O)c1cccc(F)c1  Glycogen synthase kinase-3 alpha (Homo sapiens)            f
 2        Oc1[nH]c2ccc(Br)cc2c1N=Nc1nn[nH]n1  Glycogen synthase kinase-3 alpha (Homo sapiens)            t
 3  COc1ccc(-c2nnc(SCC(=O)Nc3ccccc3OC)o2)cc1  Glycogen synthase kinase-3 alpha (Homo sapiens)            f
 4  N#CC1=C(N)Oc2n[nH]c(-c3cccnc3)c2C1c1cc(F)ccc1F (configuration not stated)  Glycogen synthase kinase-3 alpha (Homo sapiens)            f
 5  Cn1c(SCC(=O)N/N=C/C=C\c2ccco2)nc2ccccc21  Glycogen synthase kinase-3 alpha (Homo sapiens)            f
 6  Cc1c2c(n3c(nc4ccccc43)c1C#N)N(CCN(C)C)CC2  Glycogen synthase kinase-3 alpha (Homo sapiens)            t
 7              c1nc(NC2CCCCCC2)c2[nH]cnc2n1  Glycogen synthase kinase-3 alpha (Homo sapiens)            t
 8                      CC(=O)Nc1ccc2nsnc2c1  Glycogen synthase kinase-3 alpha (Homo sapiens)            f
 9  CC(C)NC(=O)c1sc2nc3c(c(-c4cccs4)c2c1N)CN(C)CC3  Glycogen synthase kinase-3 alpha (Homo sapiens)            f
10            Cc1ccccc1CSc1nnc(-c2ccncc2)n1C  Glycogen synthase kinase-3 alpha (Homo sapiens)            f
11  CCOC(=O)N1CCC(N2CCN(S(=O)(=O)c3ccc(OC)cc3)CC2)CC1  Glycogen synthase kinase-3 alpha (Homo sapiens)            f
12  CC1=C(C(=O)OC(C)C)C(c2cccc(F)c2)n2ncnc2N1 (configuration not stated)  Glycogen synthase kinase-3 alpha (Homo sapiens)            f
13  COc1ccccc1OC(C)C(=O)N1CCC(Cc2ccccc2)CC1 (configuration not stated)  Glycogen synthase kinase-3 alpha (Homo sapiens)            f
14            O=c1[nH]ncc(N/N=C\c2cccs2)c1Cl  Glycogen synthase kinase-3 alpha (Homo sapiens)            t
15  Cc1ccc(-n2nnnc2SCc2nnc(-c3ccccc3Br)o2)cc1  Glycogen synthase kinase-3 alpha (Homo sapiens)            f
16  Cc1ccc(NC(=O)c2cc(-n3cnnc3)ccc2Cl)c(C)c1  Glycogen synthase kinase-3 alpha (Homo sapiens)            f
17  COc1ccc(Nc2nc(N)nc(COc3ccc(OC)cc3)n2)cc1  Glycogen synthase kinase-3 alpha (Homo sapiens)            f
18  CC(=O)Nc1ccc(NC(=O)CSc2nc3[nH]ncc3c(=O)n2-c2ccccc2)cc1  Glycogen synthase kinase-3 alpha (Homo sapiens)            f
19             COc1cccc(Nc2ncnc3nc[nH]c23)c1  Glycogen synthase kinase-3 alpha (Homo sapiens)            t
20  CC(=O)Nc1ccc(NS(=O)(=O)c2cccc3nonc23)cc1  Glycogen synthase kinase-3 alpha (Homo sapiens)            f
21      CCCCC(=O)Nc1nn(CC)c2nc3c(C)cccc3cc12  Glycogen synthase kinase-3 alpha (Homo sapiens)            f
22  O=C(c1ccco1)c1cn(CC(=O)N2CCCCC2)c2ccccc12  Glycogen synthase kinase-3 alpha (Homo sapiens)            f
23  CC(C)c1c(C(=O)N/N=C/c2ccsc2)nnn1-c1nonc1N  Glycogen synthase kinase-3 alpha (Homo sapiens)            f
24    COc1cccc2c1C(=O)O/C2=C/c1ccc2c(c1)OCO2  Glycogen synthase kinase-3 alpha (Homo sapiens)            f
25  COc1cccc(OCc2cc(C(=O)NCc3ccc4c(c3)OCO4)no2)c1  Glycogen synthase kinase-3 alpha (Homo sapiens)            f
26  N#Cc1c(-c2ccccc2)nc(SCc2ccc(Cl)cc2)[nH]c1=O  Glycogen synthase kinase-3 alpha (Homo sapiens)            f
27           Cc1noc(C)c1CSc1nnc(-c2ccccc2)o1  Glycogen synthase kinase-3 alpha (Homo sapiens)            f
28  Cc1cnc(NC(=O)C2CC(=O)N(c3ccc4c(c3)OCCO4)C2)s1 (configuration not stated)  Glycogen synthase kinase-3 alpha (Homo sapiens)            f
29    Cc1ccc(-c2nnc3n2N=C(c2ccccc2Br)CS3)cc1  Glycogen synthase kinase-3 alpha (Homo sapiens)            f
30  CC1=C(C(=O)OCc2ccccc2)C(c2cccc(F)c2)NC(=O)N1 (configuration not stated)  Glycogen synthase kinase-3 alpha (Homo sapiens)            f
31  O=C(CSCc1ccc([N+](=O)[O-])cc1)N/N=C/c1cccnc1  Glycogen synthase kinase-3 alpha (Homo sapiens)            f
32       Oc1[nH]c2ccc(Br)cc2c1N=Nc1ccc(F)cc1  Glycogen synthase kinase-3 alpha (Homo sapiens)            t
33  O=S(=O)(c1ccc(Cl)nc1)N1CCN(Cc2ccc3c(c2)OCO3)CC1  Glycogen synthase kinase-3 alpha (Homo sapiens)            f
34  O=c1[nH]c(=O)n(C2CCCCCC2)c(O)c1C=NC1CCN(Cc2ccccc2)CC1  Glycogen synthase kinase-3 alpha (Homo sapiens)            t
35  O=c1[nH]c(=O)n(CCC2=CCCCC2)c(O)c1C=NCCCn1ccnc1  Glycogen synthase kinase-3 alpha (Homo sapiens)            t
36                 Fc1cccc(Nc2ncnc3sccc23)c1  Glycogen synthase kinase-3 alpha (Homo sapiens)            f
37  CCN1C(=O)C(=C/C=C/c2ccco2)C(=O)N(CC)C1=S  Glycogen synthase kinase-3 alpha (Homo sapiens)            f
38  CCC(Oc1ccccc1)C(=O)Nc1ncc([N+](=O)[O-])s1 (configuration not stated)  Glycogen synthase kinase-3 alpha (Homo sapiens)            f
39  CCN1CCN(c2c(Cl)cccc2NC(=O)c2cc3ccccc3o2)CC1  Glycogen synthase kinase-3 alpha (Homo sapiens)            f
40                     COC(=O)c1sc2cnccc2c1N  Glycogen synthase kinase-3 alpha (Homo sapiens)            t
41              CC(=O)Nc1cccc(-c2csc(N)n2)c1  Glycogen synthase kinase-3 alpha (Homo sapiens)            f
42  COc1ccc(OCc2nc(N)nc(Nc3cccc(C)c3C)n2)cc1  Glycogen synthase kinase-3 alpha (Homo sapiens)            f
43  CC(C)N1C(=O)/C(=C/C=C/c2ccco2)C(=O)N(Cc2ccco2)C1=O  Glycogen synthase kinase-3 alpha (Homo sapiens)            f
44          Clc1cccc(/C=N/Nc2ncnc3ccccc23)c1  Glycogen synthase kinase-3 alpha (Homo sapiens)            f
45  Cc1cc(C)c(S(=O)(=O)Nc2ccnc(-c3cccnc3)n2)c(C)c1  Glycogen synthase kinase-3 alpha (Homo sapiens)            t
46  CCOC(=O)c1cc(-c2ccc(F)cc2)n(CC(=O)NCc2ccccn2)c1C  Glycogen synthase kinase-3 alpha (Homo sapiens)            f
47    C=CCSc1ncnc2c1oc1nc3c(cc12)COC(C)(C)C3  Glycogen synthase kinase-3 alpha (Homo sapiens)            f
